Readings of EC50, GLP-1 Receptor cAMP induction for the listed binders
system-under-test: human GLP-1 receptor (human, UniProt P43220 24-463)
Sequence (P43220 24-463): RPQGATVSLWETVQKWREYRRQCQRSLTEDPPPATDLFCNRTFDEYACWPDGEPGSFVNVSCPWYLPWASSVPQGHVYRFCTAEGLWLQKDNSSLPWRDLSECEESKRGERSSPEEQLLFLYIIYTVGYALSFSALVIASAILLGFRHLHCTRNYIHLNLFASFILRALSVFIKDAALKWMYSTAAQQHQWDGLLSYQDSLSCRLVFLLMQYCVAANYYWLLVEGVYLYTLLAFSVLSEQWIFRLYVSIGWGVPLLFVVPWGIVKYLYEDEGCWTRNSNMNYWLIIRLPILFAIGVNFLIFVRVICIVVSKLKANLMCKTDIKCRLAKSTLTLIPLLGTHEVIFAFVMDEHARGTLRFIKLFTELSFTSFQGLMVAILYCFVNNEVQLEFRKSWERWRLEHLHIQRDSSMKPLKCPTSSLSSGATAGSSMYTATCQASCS
method-notes: cell-based or functional assay
Where no end group is shown, it is not given here. [ ]: non-standard residue; d: D form. Nle = CCCC[C@H](N)C(=O)O; Aib = CC(C)(N)C(=O)O
All answers are understood in nM, so give the number only.

binder Y[Aib]EGTFTSDYSIF[Nle]EKIHQQDFVNWLLAQ-NH2 [Analog 011] , EC50, GLP-1 Receptor cAMP induction observed: 1480
